B1: FAM50A (parent)
chain: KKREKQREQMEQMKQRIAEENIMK

Variants of: B1
Assay: protein stability index of a GFP-peptide fusion (GPS, HEK-293T) (PSI 1-6); higher = more stable;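 also: lentivirally expressed fusions sorted by FACS into six bins by GFP to DsRed ratio, PSI derived from sequencing read proportions per bin multiplied by bin number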
Conditions: c terminus: a fixed tail appended
QUANTITY KIND: protein stability index
Output spec: single numeric token, no unit.

{"columns": ["VARIANT DESCRIPTOR", "ASSAY VALUE"],
 "data": [
  ["E19S", 4.33]
]}

Task item: Name the recorded protein stability index for `E8Y` .
Reply: 4.23

Task item: Field request: protein stability index | item: `M10N`
Reply: 4.9

Task item: Query (variant): `Q9I` ; field requested: protein stability index
Reply: 4.01
